Overview of recorded PBM binding z-score for various sequences
# Test system: FXR:RXRa (NR concentration 270 nM, RXRa partner concentration 90 nM)
# Protocol Details: PBM binding z-score (relative to random genomic background probes); higher = stronger binding; sequences stand for … in GC…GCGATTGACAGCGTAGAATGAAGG
Parameter: PBM binding z-score

sequence_text=TTTCCAAGGTGAGCTGAGGTCGTTGATCCAACTC measured_number=2.71
sequence_text=TTACCAAGGTGAGCTGAGGTCGTGGATCCAACTC measured_number=1.09
sequence_text=GCATATAGGTAATACAAGGGGAAAGTCCGATTGT measured_number=0.256
sequence_text=AGTCAAAGTTCACCAGGTAACGTAAGATTCAGCT measured_number=6.31
sequence_text=AGAACGACGGCACGCTGAGTTGATAGCAGAGTAG measured_number=-0.194
sequence_text=CCTTAAGGGTCAAGGTTATAGCACGGGTGGTACG measured_number=7.56
sequence_text=CCTAGCAGGCCAATCTGGGTTACTCAAGGCTTGA measured_number=0.0367
sequence_text=AGAATGAGGTTACCTAAGATCAGGGAAACGCTTG measured_number=1.57
sequence_text=CCTGCTAGGTCATGGTCAGTTAATCTACAGTATG measured_number=3.84
sequence_text=CGAACTAGGTCAGAACATGACAGTGAAGGATGAT measured_number=0.703
sequence_text=ACAGACAGGTGACGAAGGTAACTCAGGCTATCAT measured_number=-0.34
sequence_text=CGAACTAGGTGATCCAGGACAGTGAATACATTGA measured_number=-0.144
sequence_text=GCGAGCAGGCCATTTGGGTCACTCAATGACGGGC measured_number=0.039
sequence_text=TCTAGTAGATCAACAGGAGGTTAAGAAAGATCGA measured_number=0.568
sequence_text=CAAACTAAGTCACGAAAGGTCAAAGTCGAATGAC measured_number=5.23
sequence_text=GCTGCTGGGTCAGGTTGGTCAGCTAACGGGTACG measured_number=0.641
sequence_text=TCATATCGGTAAAAGGTGAAAGTCGGTGTGGTAA measured_number=1.65
sequence_text=CGAACTAGGTCGGAACAGGACAGTGAAGGATGAT measured_number=-0.0248
sequence_text=TCTAGTTGGTCACGGAGGTCATACACGACGGGTA measured_number=3.53
sequence_text=CAGACTAGGTCAAGAGGTCAAAGTCCGCTTCCCG measured_number=7.03
sequence_text=CCTACTTGGTCAGGAGGTCACACACCGGATATGA measured_number=3.55
sequence_text=ACTGACAGGTGAGTGAAGGTAACTCAGCTGGACG measured_number=0.406
sequence_text=ATACCAAGGTGAGCGTGAGGTCGTTGATACTAAC measured_number=1.64
sequence_text=CCTCCTGGGCCAAAAAGGTCATTGATGCCGATAA measured_number=3.19
sequence_text=CAAACTAAGTCAAGGTCAAAGTCGGTTTGTGCCA measured_number=4.9
sequence_text=CGTCAAAGTACAACTAAGGTAACGTAAAGCACGC measured_number=0.707

====

Overview of recorded PBM binding z-score for various sequences
# System: FXR:RXRa (NR concentration 270 nM, RXRa partner concentration 90 nM)
# Protocol Details: PBM binding z-score (relative to random genomic background probes); higher = stronger binding; sequences stand for … in GC…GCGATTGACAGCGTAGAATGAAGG
Parameter: PBM binding z-score

sequence_text=TCTAGCAGGCCAGAGGGTCACTCACGAGGTACGG measured_number=0.586
sequence_text=AATACAGGGTCACTAGGCCGGAGTAGGTACGAAT measured_number=5.72
sequence_text=TCTTGTAAATCAATAGAGGTTAAGAAAGTGCGCT measured_number=0.793
sequence_text=GCTCGGATGACAAGGTCAGAGCTTTGTCCGTAGA measured_number=0.982
sequence_text=GATACAGGGTCAGCCAGAGGCCAGAGTATGGAAA measured_number=4.61
sequence_text=ACTTACGGATCAACGAGGTTATAGCACGCGTATA measured_number=0.716
sequence_text=ATCGCTAGGTAAAAGTTCAGTGAATCCCGAGGAT measured_number=0.352
sequence_text=GCTTGTACATCAAGGTTAAGAAAGACTAAGCTAA measured_number=0.247
sequence_text=CCGACTGGGGCAAAGGTTGCCATACTCAGTACGA measured_number=-0.0811
sequence_text=TGAATGAGGTTAAAGATCTGGGAACGTGGCGTCG measured_number=2.5
sequence_text=TTACCAAGGTGAAGGTCGTAGATCCCTCTGTAGA measured_number=0.719
sequence_text=TAGCCTAGGACATGGGCCAGTATACCACGCGAAC measured_number=-0.615

Values from the supplement of paper PMC6555819
